Test: aqueous solubility of the crystalline forms
Format: physicochemical
Details: pH 1.5, aqueous buffer, in water at physiological pHs (pH1.5-8.0)
measurementType: solubility

[in] Using the record for COc1cc(C(=O)O)ccc1NC(=O)[C@@H]1N[C@@H](CC(C)(C)C)[C@](C#N)(c2ccc(Cl)cc2F)[C@H]1c1cccc(Cl)c1F [Compound A] , report its solubility.
[out] < 0.05 µg/mL

Data credit: patent US10227298B2
